biological target: cyclin E/CDK2 enzyme (Homo sapiens, UniProt P24941); construct: made in house; host or cells: Sf9 insect cells, recombinant baculovirus; experiment: CDK2 ELISA kinase assay (phospho-Rb ser 795 detection); assay type: biochemical; details: In Vitro Enzyme Assay, cyclin E/CDK2, read-out: CDK2 IC50
Collected pIC50 values appear next to each entry.
The quantity pIC50 is defined as the negative base-10 logarithm of the molar concentration.

Study these solved cases before continuing.
Could you tell me which pIC50 is on file for O=C1NC(=O)c2ccc(I)cc2/C1=C/NCc1cc(O)c(-c2ccoc2)cn1 ?
5.64

Could you tell me which pIC50 is on file for NS(=O)(=O)c1ccc(CNC=C2C(=O)NC(=O)c3ccc(-c4ccc(Cl)cc4)cc32)cc1 ?
5.10

Could you tell me which pIC50 is on file for CCCCn1ccc(CN/C=C2\C(=O)NC(=O)c3ccc(I)cc32)cc1=O ?
5.30

More entries:
Could you tell me which pIC50 is on file for O=C1NC(=O)c2ccc(I)cc2/C1=C/NCc1ccn(-c2ccsc2)c(=O)c1 ?
4.38

Could you tell me which pIC50 is on file for COc1ccc(CNC=C2C(=O)NC(=O)c3ccc(C=Cc4ccncc4)cc32)cc1O ?
4.46

Could you tell me which pIC50 is on file for O=C1NC(=O)c2ccc(-c3ccc(CO)cc3)cc2C1=CNc1ccc(CN2CCCC2)cc1 ?
4.51

Could you tell me which pIC50 is on file for COc1ccc(CNC=C2C(=O)NC(=O)c3ccc(C=Cc4ccccc4)cc32)cc1O ?
4.44

Could you tell me which pIC50 is on file for O=C1NC(=O)c2ccc(N3CCCC3)cc2/C1=C/NCc1ccc(O)c(O)c1 ?
4.92

Could you tell me which pIC50 is on file for O=C1NC(=O)c2ccc(N3Cc4ccccc4C3)cc2C1=CNCc1ccc(O)c(O)c1 ?
5.60

Could you tell me which pIC50 is on file for CN1CCN(c2ccc(N/C=C3\C(=O)NC(=O)c4ccc(Br)cc43)nn2)CC1 ?
4.39

Could you tell me which pIC50 is on file for O=C1NC(=O)c2ccc(-c3ccccc3F)cc2C1=CNCc1ccc(O)c(O)c1 ?
5.41

Could you tell me which pIC50 is on file for COc1ccc(CNC=C2C(=O)NC(=O)c3ccc(C=CCN4CC(=O)NC4=O)cc32)cc1O ?
4.89

Could you tell me which pIC50 is on file for O=C(O)C=Cc1cccc(-c2ccc3c(c2)C(=CNCc2ccc(O)c(O)c2)C(=O)NC3=O)c1 ?
4.56

Could you tell me which pIC50 is on file for O=C1NC(=O)c2ccc(-c3ccccc3)cc2C1=CNCc1ccc(O)c(O)c1 ?
5.24

====

biological target: cyclin B/CDK1 enzyme (Homo sapiens); construct: purchased New England BioLabs; host or cells: Sf9 insect cells, recombinant baculovirus; assay: CDK1 ELISA kinase assay (phospho-Rb ser 795 detection); assay type: biochemical; conditions: In Vitro Enzyme Assays, read-out: CDK1 IC50
Sequence (P06493 whole entry): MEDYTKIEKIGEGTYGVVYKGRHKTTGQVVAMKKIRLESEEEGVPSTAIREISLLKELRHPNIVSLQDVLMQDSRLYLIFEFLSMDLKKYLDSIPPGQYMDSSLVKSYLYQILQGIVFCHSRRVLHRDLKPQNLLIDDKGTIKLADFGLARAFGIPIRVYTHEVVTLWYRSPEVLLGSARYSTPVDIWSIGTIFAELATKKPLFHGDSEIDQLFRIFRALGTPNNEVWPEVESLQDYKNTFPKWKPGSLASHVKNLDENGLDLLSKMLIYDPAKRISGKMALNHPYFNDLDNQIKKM
Sequence (P14635 whole entry partner): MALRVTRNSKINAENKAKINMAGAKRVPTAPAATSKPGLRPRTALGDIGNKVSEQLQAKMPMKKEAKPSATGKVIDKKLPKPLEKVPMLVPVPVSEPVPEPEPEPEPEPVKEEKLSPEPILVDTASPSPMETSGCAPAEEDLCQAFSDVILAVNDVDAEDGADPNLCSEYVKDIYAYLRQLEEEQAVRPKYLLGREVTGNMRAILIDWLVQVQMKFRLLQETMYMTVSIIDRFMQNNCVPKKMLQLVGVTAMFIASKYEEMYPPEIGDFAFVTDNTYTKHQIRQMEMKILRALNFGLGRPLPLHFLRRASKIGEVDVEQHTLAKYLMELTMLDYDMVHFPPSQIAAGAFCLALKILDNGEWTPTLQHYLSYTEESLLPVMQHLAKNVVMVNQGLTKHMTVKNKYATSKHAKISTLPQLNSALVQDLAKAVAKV
Collected IC50 values appear next to each entry.

Could you tell me which IC50 is on file for O=C1NC(=O)c2ccc(-c3ccsc3)cc2C1=NNc1ccc(CN2CCCCC2)cc1 [Example 152] ?
36.3 µM

More entries:
Could you tell me which IC50 is on file for O=C1NC(=O)c2ccccc2/C1=C/NCc1cccc(O)c1 [Example 63] ?
> 50 µM

Could you tell me which IC50 is on file for O=C1NC(=O)c2ccc(Br)cc2/C1=C/NCc1cc[nH]c(=O)c1 [Example 225] ?
> 50 µM

Could you tell me which IC50 is on file for COc1ccc(/C=C2/C(=O)NC(=O)c3ccccc32)cc1OC [Example 12] ?
> 32 µM

Could you tell me which IC50 is on file for COc1coc(CNC=C2C(=O)NC(=O)c3ccc(Br)cc32)cc1=O [Example 316] ?
> 50 µM

Could you tell me which IC50 is on file for O=C1NC(=O)c2ccccc2/C1=C/Nc1ccc(CN2CCC(O)CC2)cc1 [Example 23] ?
> 26 µM

Could you tell me which IC50 is on file for O=C1NC(=O)c2ccc(-c3ccc(F)cc3)cc2/C1=C/Nc1ccc(CN2CCCC2)cc1 [Example 127] ?
> 50 µM

Could you tell me which IC50 is on file for COC1CCN(Cc2ccc(N/C=C3\C(=O)NC(=O)c4ccc(I)cc43)cc2)CC1 [Example 394] ?
> 50 µM

Could you tell me which IC50 is on file for CN1CC2CC1CN2c1ccc(NC=C2C(=O)NC(=O)c3ccc(I)cc32)cc1 (stereo not drawn) [Example 221] ?
> 50 µM
